Provenance of the data: the Immune Epitope Database (IEDB)

Biological target: HLA-A*31:01
Test: IEDB peptide-MHC binding, purified MHC/competitive/radioactivity; filed as Kd, often an IC50 or EC50 that approximates it; bounds were set here for any values at or beyond the usual limits of such assays
Details: source organism: Vaccinia virus WR
Checkbox rule: Kd lower than 0.1 µM = Fulfilled; Kd not lower than 0.1 µM = Not fulfilled.

Consider the worked cases shown below.
monomer.sequence: VADLSARNK
assigned.class: Not fulfilled

monomer.sequence: VLFVKKMLPK
assigned.class: Not fulfilled

monomer.sequence: DIVNNFITK
assigned.class: Not fulfilled

monomer.sequence: TMRIYCSLFK
assigned.class: Fulfilled

monomer.sequence: KLSSIKSKSR
assigned.class: Not fulfilled

Proceed to the following item.
Dear reviewer, please state whether GFEARIVDK has Kd strictly beneath 0.1 µM. Not fulfilled

---

Molecular target: HLA-A*02:11
Experiment: IEDB peptide-MHC binding, purified MHC/competitive/fluorescence; filed as Kd, often an IC50 or EC50 that approximates it; bounds were set here for any values at or beyond the usual limits of such assays
Conditions: source organism: Yersinia pestis Antiqua
metric.name: Kd

Give me measured Kd, please, for this sequence: PLTNQRYRV ≥ 20 µM

---

Biological target: HLA-A*02:01
Experiment: IEDB peptide-MHC binding, purified MHC/direct/fluorescence; filed as Kd, often an IC50 or EC50 that approximates it; bounds were set here for any values at or beyond the usual limits of such assays
Conditions: source organism: Vibrio parahaemolyticus AQ3810
pKd: −log10 of the molar value.
metric.name: pKd

Give me measured pKd, please, for this sequence: EPFLVQFWI ≤ 4.70

---

Target: HLA-B*51:01
Experiment: IEDB peptide-MHC binding, purified MHC/competitive/fluorescence; filed as Kd, often an IC50 or EC50 that approximates it; bounds were set here for any values at or beyond the usual limits of such assays
Conditions: source organism: Influenza A virus H3N2
metric.name: Kd (nM)
Give your result in nM as a bare value.

Give me measured Kd, please, for this sequence: FPNEVGARI 352

---

Molecular target: HLA-A*31:01
Assay: IEDB peptide-MHC binding, purified MHC/competitive/fluorescence; filed as Kd, often an IC50 or EC50 that approximates it; bounds were set here for any values at or beyond the usual limits of such assays
Details: source organism: Hantaan virus 76-118
metric.name: Kd (nM)
Give your result in nM as a bare value.

Give me measured Kd, please, for this sequence: VLFMVAWGK 161

---

Molecular target: HLA-B*58:01
Assay: IEDB peptide-MHC binding, purified MHC/direct/fluorescence; filed as Kd, often an IC50 or EC50 that approximates it; bounds were set here for any values at or beyond the usual limits of such assays
Conditions: source organism: Influenza A virus (A/chicken/Hunan/fg/2004(H5N1))
pKd: −log10 of the molar value.
metric.name: pKd

Give me measured pKd, please, for this sequence: DTVNRTHQY ≤ 4.70

---

Target: HLA-A*33:01
Test: IEDB peptide-MHC binding, purified MHC/competitive/radioactivity; filed as Kd, often an IC50 or EC50 that approximates it; bounds were set here for any values at or beyond the usual limits of such assays
Conditions: source organism: Vaccinia virus Copenhagen
Let's look at some sequences and their measured Kd.
Give your result in µM as a bare value.

monomer.sequence: QLMYALEPR
Kd [µM]: 17.3

Give me measured Kd, please, for this sequence: CQLMYALEPR 0.0144

Give me measured Kd, please, for this sequence: NLFDIPLLTV 11.8

Give me measured Kd, please, for this sequence: TLFIDRGSIK 4.65
